# System: Calu-3
# EXPERIMENT DESCRIPTION: cell viability relative to DMSO; higher = less toxic
# EXPERIMENTAL PARAMETERS: 72 h; 10000 nM
Item-by-item account of cell viability
Answer format: numeric, % implied, no suffix.

Sample COc1ccccc1S(=O)(=O)Nc1ccc2c(c1)CN(C)C(=O)N2 [PFI-1] ; cell viability observed: 58.2

Continuing:
The measured cell viability associated with CC(C)NCC(O)COc1cccc2ccccc12 (stereo not drawn) [propranolol] reads 92.9

cell viability reading for CC1(C)C(=O)NC2=C1C(=O)C(=O)c1ccccc12 [BVT-948] : 20.3

* * *

# Tested on: Calu-3
# EXPERIMENT DESCRIPTION: cell viability relative to DMSO; higher = less toxic
# EXPERIMENTAL PARAMETERS: 72 h; 100 nM
Documented cell viability across a set of compounds
Give the quantity in %, number only.

These solved cases illustrate the format of a correct answer.
Noted for CC(=O)[C@@]12O[C@](C)(c3ccccc3)O[C@@H]1C[C@H]1[C@@H]3CCC4=CC(=O)CC[C@]4(C)[C@H]3CC[C@@]12C [algestone-acetophenide] : its cell viability reads 96.3

get_value(item= CN(C)CCCCC(=O)Nc1ccc(NC(=S)NC(=O)c2ccc(C(C)(C)C)cc2)cc1 , readout=cell viability) returns 101

The recorded cell viability for entry CCN(CC)CCNC(=O)c1cc(S(C)(=O)=O)ccc1OC [tiapride] equals 101

Here is another compound to look at.
Entry Nc1nc(=O)c2sc(=O)n([C@@H]3O[C@H](CO)[C@@H](O)[C@H]3O)c2[nH]1 , cell viability reported as 97
